Origin of values: PubChem BioAssay AID1239

- Assay Info: activators of NF-kB expression in neurons, primary screen, cell-based, HTS (AID 1239)
- Settings: human neuronal cells, NF-kB reporter expression; at 12.5 µM; active compounds read high
In all, about 190,000 compounds went through this assay and about 3,100 (1.6%) were called active. This is one part of a sample in which actives are shown more often than they occur.
Recorded Endpoint: fold change

Example molecules with recorded fold change:
O=C(Nc1ccccc1)c1ccc2c(c1)OCO2
3.31 (active)
CN(CCN1CCOCC1)Cc1nc(-c2ccc3c(c2)OCO3)no1
1.23 (inactive)
COCc1nnc(NC(=O)c2ccc3c(c2)OCO3)s1
2.07 (inactive)

Name the recorded fold change for COc1ccc(C(=O)Nc2ccc3c(c2)OCO3)cc1OC .
2.06 (inactive)

Name the recorded fold change for COc1ccc(C2CC(c3cccs3)=NN2c2ccccc2)cc1 (stereo not drawn) .
1.15 (inactive)

Name the recorded fold change for CC(=O)Nc1ccc(-c2csc(NC(=O)Nc3ccccc3)n2)cc1 .
1.32 (inactive)

Name the recorded fold change for NS(=O)(=O)c1cccc(NC(=O)COC(=O)/C=C/c2ccco2)c1 .
1.19 (inactive)
